Reference source for all entries: patent US20220403048A1

# Measured target: T1, recombinant human trimeric ARG2 enzyme (construct not given) (human, UniProt P78540 23-354)
# T1 sequence (looked up): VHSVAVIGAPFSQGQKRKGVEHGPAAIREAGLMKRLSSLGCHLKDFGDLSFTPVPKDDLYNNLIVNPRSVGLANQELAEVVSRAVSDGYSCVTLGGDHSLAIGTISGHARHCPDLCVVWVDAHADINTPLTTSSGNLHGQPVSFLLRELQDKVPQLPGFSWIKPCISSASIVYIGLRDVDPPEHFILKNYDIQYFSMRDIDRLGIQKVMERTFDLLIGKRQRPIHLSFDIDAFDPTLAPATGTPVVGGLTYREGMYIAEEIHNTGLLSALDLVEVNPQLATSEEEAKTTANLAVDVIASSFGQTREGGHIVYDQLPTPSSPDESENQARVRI
# Test name: cell-based or functional assay
Provide the reported Maximum % Proliferation, In Presence of rhARG2 of each item.
Your answer should be a plain number; it is taken to be in %.

Ask: Give Maximum % Proliferation, In Presence of rhARG2 for C0021177 recombinant human IgG1 (antibody, V domains shown) VH: EVQLLESGGGLVQPGGSLRLSCAASGFTFRYEVAAWVRQAPGKGLEWVSAISGPAPKGYYADSVKGRFTISRDNSKNTLYLQMNSLRAEDTAVYYCARLRADLGLYMDLWGRGTLVTVSS VL: QSELTQPPTASAAPGQKVTISCSGSSSNIGNHYVSWYQQLPGTAPKLLIYDTTVLSSGIPDRFSGSKSGTSATLGITGLQTGDEADYYCGTWDELTSNLVFGGGTKLTVL
Reply: 84

Ask: Give Maximum % Proliferation, In Presence of rhARG2 for C0021061 recombinant human IgG1 (antibody, V domains shown) VH: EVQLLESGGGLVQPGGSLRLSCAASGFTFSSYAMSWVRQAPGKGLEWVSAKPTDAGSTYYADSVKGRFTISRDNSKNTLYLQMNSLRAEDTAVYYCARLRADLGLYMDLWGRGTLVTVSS VL: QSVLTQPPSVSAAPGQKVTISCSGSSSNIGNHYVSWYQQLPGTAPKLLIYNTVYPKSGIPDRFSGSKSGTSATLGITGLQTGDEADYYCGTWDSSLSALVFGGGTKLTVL
Reply: 110

Ask: Give Maximum % Proliferation, In Presence of rhARG2 for C0021180 recombinant human IgG1 (antibody, V domains shown) VH: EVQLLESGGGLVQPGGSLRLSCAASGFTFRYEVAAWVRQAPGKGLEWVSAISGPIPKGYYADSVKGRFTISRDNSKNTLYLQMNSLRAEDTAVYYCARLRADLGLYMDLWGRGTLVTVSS VL: QSVLTQPPTVSAAPGRKVTISCSGSSSNIGDHHVSWYQQLPGAAPKLLIYDTDHMASGIPDRFSGSRSGTSATLGITGLQTGDEADYYCGTWDSSLSALVFGGGTKLTVL
Reply: 91

Ask: Give Maximum % Proliferation, In Presence of rhARG2 for C0021158 recombinant human IgG1 (antibody, V domains shown) VH: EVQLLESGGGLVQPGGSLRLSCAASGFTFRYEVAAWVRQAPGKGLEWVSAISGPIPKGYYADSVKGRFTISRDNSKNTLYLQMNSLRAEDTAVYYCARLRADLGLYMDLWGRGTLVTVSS VL: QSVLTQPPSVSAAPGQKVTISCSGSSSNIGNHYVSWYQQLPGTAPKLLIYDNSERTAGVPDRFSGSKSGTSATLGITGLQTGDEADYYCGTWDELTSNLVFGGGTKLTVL
Reply: 90
